# TEST NAME: chemical genetic growth profiling, strain panel (AID 1159580);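 also: tested at 20 µM; growth read once vehicle control cultures reached saturation at 30 °C; 1 = growth at the plate median or of vehicle wells; lower values mean less growth of the strain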
# ASSAY CONDITIONS: S. cerevisiae deletion strains, growth OD, locus YGL253W, strain hxk2, active compounds read low
Hit rate of the full screen: of about 5,500 compounds, about 2,000 (36%) were called active. Another 18% or so got no clear call; they are omitted. Some of the results follow.

{"MOLECULE": "COc1ccc2c(c1)c(CC(=O)O)c(C)n2C(=O)c1ccc(Cl)cc1", "normalized growth": 0.993}
{"MOLECULE": "OC(CCN1CCCCC1)(c1ccccc1)C1CC2C=CC1C2 (stereo not drawn)", "normalized growth": 1.01}
{"MOLECULE": "Cc1cc(O)cc(C)c1Cl", "normalized growth": 0.895}
{"MOLECULE": "O=C1C(O)=C(O)C(=O)C(O)=C1O", "normalized growth": 1}
{"MOLECULE": "Cc1cc(C(C)(C)C)c(O)c(C(C)(C)C)c1", "normalized growth": 0.96}
{"MOLECULE": "COC(=O)C[C@H]1C(C)(C)C(=O)[C@@H]2CC3C4=CC(=O)O[C@@H](c5ccoc5)[C@]4(C)CCC3[C@@]1(C)C2=O (stereo partly drawn)", "normalized growth": 0.98}
{"MOLECULE": "COc1cccc2c1C(=O)c1c(O)c3c(c(O)c1C2=O)C[C@@](O)(C(=O)CO)C[C@@H]3OC1C[C@H](N)[C@H](O)[C@H](C)O1 (stereo partly drawn)", "normalized growth": 0.247}
{"MOLECULE": "NC12CC3CC(CC(C3)C1)C2", "normalized growth": 0.98}
{"MOLECULE": "C/C=C(/C)C(=O)O[C@@H]1[C@H](OC(C)=O)[C@@]2(CO)C(CC1(C)C)C1=CCC3[C@@]4(C)CC[C@H](O[C@@H]5O[C@H](C(=O)O)[C@@H](O[C@@H]6O[C@H](CO)[C@@H](O)[C@H](O)[C@H]6O)[C@H](O)[C@H]5O[C@@H]5O[C@H](CO)[C@@H](O)[C@H](O)[C@H]5O)[C@](C)(CO)C4CC[C@@]3(C)[C@]1(C)C[C@H]2O (stereo partly drawn)", "normalized growth": 0.974}
{"MOLECULE": "OC(CCN1CCCC1)(c1ccccc1)C1CCCCC1 (stereo not drawn)", "normalized growth": 1.01}
{"MOLECULE": "COC1=C[C@@H]2[C@@H]3Cc4ccc(OC)c(O)c4[C@]2(CCN3C)CC1=O", "normalized growth": 1.01}
{"MOLECULE": "CC(C)(C#N)O[C@@H]1O[C@H](CO)[C@@H](O)[C@H](O)[C@H]1O", "normalized growth": 1}
{"MOLECULE": "COC(=O)C[C@H]1C(C)(C)C2(O)OC34CC2C(=O)[C@]1(C)C3CC[C@]1(C)C4=CC(=O)O[C@H]1c1ccoc1 (stereo partly drawn)", "normalized growth": 0.968}
{"MOLECULE": "CC(C)(Sc1cc(C(C)(C)C)c(O)c(C(C)(C)C)c1)Sc1cc(C(C)(C)C)c(O)c(C(C)(C)C)c1", "normalized growth": 1.02}
{"MOLECULE": "N=C(N)c1ccc(OCCCCCOc2ccc(C(=N)N)cc2)cc1", "normalized growth": 0.8}
{"MOLECULE": "Cc1ccc(N=CN(C)C=Nc2ccc(C)cc2C)c(C)c1", "normalized growth": 0.979}
{"MOLECULE": "C[C@H]1[C@H](C)CC[C@]2(CO)CC[C@]3(C)C(=CCC4[C@@]5(C)CC[C@H](O)C(C)(C)C5CC[C@]43C)[C@H]12 (stereo partly drawn)", "normalized growth": 0.995}
{"MOLECULE": "CC(=O)/C=C\\[C@@H]1[C@@]2(C)CCCC(C)(C)C2CC[C@@]1(C)O (stereo partly drawn)", "normalized growth": 0.975}
